- Test system: RXF 393
- Protocol summary: NCI tumour cell line growth inhibition, 48 h
Activity calls are given as the source filed them. No stated cut-off is given here; in the data, active = GI50 up to about 1.1 µM and inactive = higher.
Measurement label: GI50

Input: For the molecule `O=Cc1ccc(OCc2cccc(COc3ccc(/C=N\Nc4ccc([N+](=O)[O-])cc4[N+](=O)[O-])cc3)n2)cc1` , what GI50 is on record?
Output: 43.2 µM (inactive)

Input: # GI50 lookup, item CCCCCCCCCCCCC(CC)CCCCC(=O)O (stereo not drawn)
Output: > 60 µM (inactive)

Input: Please report the recorded GI50 for COc1c2ccoc2cc2oc(=O)ccc12 [BERGAPTEN] .
Output: > 100 µM (inactive)

Input: Tell me the measured GI50 of `CCOC(=O)C1=C(Nc2ccccc2)SC/C1=N\NC(=O)Cc1ccccc1` , please.
Output: > 100 µM (inactive)

Input: Can you look up the measured GI50 of `C#CCCOC(=O)c1ccccc1OC(C)=O` for me?
Output: > 100 µM (inactive)

Input: Name the reported GI50 value associated with the molecule `O=C1CCC(=O)N1Cc1ccccc1/N=[N+](\[O-])c1ccccc1CN1C(=O)CCC1=O`
Output: > 100 µM (inactive)

Input: Would you mind telling me what GI50 value was observed for `CC(CCC#N)(CCC#N)C(=O)CC(O)(C(F)(F)F)C(F)(F)F` ?
Output: 2.07 µM (inactive)

Input: Requested read-out: GI50. Entry: `CCC1=NC(N/N=C/c2ccco2)=N/C1=C\c1ccccc1O`
Output: 82.4 µM (inactive)

Input: Consider the molecule `COc1ccc(OC)c2c1-c1nnnn1CCC2(C)C` and give its measured GI50.
Output: > 100 µM (inactive)

Input: Consider the molecule shown here: NC(=O)C(N)CC12CC3CC(CC(C3)C1)C2 (stereo not drawn) What is its recorded GI50?
Output: 16.3 µM (inactive)

Input: Dear colleague, I am looking for the recorded GI50 of the following molecule: `CCOP(=O)(OCC)/C(C#N)=C/c1ccc(-c2ccc(F)cc2F)o1`
Output: 29 µM (inactive)

Input: Recorded GI50 of `O=C1[C@@H](O)[C@@H]2CCCC[C@@]23CCCN13` , please.
Output: > 100 µM (inactive)

Input: What value of GI50 has been recorded for this entry: Cc1cc(O)nc(NNC(C#N)c2c(O)ccc3ccccc23)n1 (stereo not drawn)
Output: 10.4 µM (inactive)

Input: Tell me the measured GI50 of COC(O)C12OC3CO[Si](C(C)C)(C(C)C)O[Si](C(C)C)(C(C)C)OC3C1Oc1nc(=O)ccn12 (stereo not drawn) , please.
Output: 11.9 µM (inactive)

Input: Reported GI50, molecule `O=c1oc2ccccc2c(-c2ccc(O)cc2)c1Oc1ccc(Cl)cc1` : ____
Output: 19.4 µM (inactive)

Input: Param item = `Cc1cccc2[nH]c3c(c(O)cc4[nH]c5cccc(C)c5c(=O)c43)c(=O)c12` ; retrieve measured GI50.
Output: 7 µM (inactive)

Input: // query GI50 value for entry O=C(CC1C(=O)Nc2ccccc2[S+]1[O-])Nc1cccc(Cl)c1 (stereo not drawn)
Output: 20.9 µM (inactive)

Input: Returns the measured GI50 for the input molecule. Input: Nc1ncnc2c1nnn2C1CCC(CP(=O)(O)O)C1 (stereo not drawn)
Output: > 100 µM (inactive)

Input: Returns the measured GI50 for the input molecule. Input: O=C1CCC2(c3ccc(F)cc3)Nc3ccccc3N12 (stereo not drawn)
Output: > 100 µM (inactive)

Input: # get_value(readout='GI50', item= `O=c1nc(N2CCNCC2)oc2cc(Cl)oc(=O)c12` )
Output: 9.1 µM (inactive)

Input: # lookup: GI50 of `COc1ccccc1/C=C1\Sc2scc(-c3cccc([N+](=O)[O-])c3)[n+]2C1=O`
Output: 4.58 µM (inactive)

Input: Name the recorded GI50 for `Cc1cc2occ(C)c(=O)c2c2c1OC(C)(C)S2` .
Output: 88.1 µM (inactive)

Input: Given the entry `O=C(O)c1nc2ccc(C(F)(F)F)cc2nc1Nc1ccc(Cl)c(Cl)c1` , report its measured GI50.
Output: 13.4 µM (inactive)

Source of measurements: ChEMBL document CHEMBL1201862
